System: PC-3 prostate
Test: NCI tumour cell line growth inhibition, 48 h
endpoint_name: TGI

• CC(=O)N(C(=O)CC(=O)N1N=C(c2ccccc2)C(N=Nc2ccccc2[N+](=O)[O-])C1=O)c1ccc(Cl)cc1 (stereo not drawn) = > 10 µM
• Cn1c2ccc3cc2c(=S)c2cc(ccc21)OCCOCCOCCOCCOCCOCCO3 = > 10 µM

The measured TGI associated with CCN1C(=O)N(c2ccccc2)C2NC(=S)N(/N=C/C=C/c3ccccc3OC)C21 (stereo not drawn) reads > 89.3 µM

----------
Tested on: SW-620 colon
Test: NCI tumour cell line growth inhibition, 48 h
The following molecules are listed with their measured TGI values.

Known TGI results, listed for orientation:
* COc1ccc2nc3cc(Cl)ccc3c(NCCNCC(C)O)c2c1 (stereo not given) | 10.3 µM
* CC(=O)O/N=C(/C)c1ccccc1O | > 100 µM
* Cn1c(=O)c2c(nc3n2CC(C(=O)O)N3)n(C)c1=O (stereo not given) | > 100 µM
* CCN(CC)C(=S)N/N=C/c1cc([N+](=O)[O-])ccc1O | > 100 µM
* COC(=O)C1=C(C(=O)OC)SC(=C2SCSC3=C2SC(C(=O)OC)=C(C(=O)OC)C32SC3=C(CCCC3)S2)S1 | > 100 µM

Result for CC1(C)OC1COc1c2occc2cc2ccc(=O)oc12 (stereo not given) , tested on SW-620 colon, TGI: > 100 µM

Bench note, SW-620 colon: entry "c1ccc2c(c1)Cn1c-2nc2ccccc21" , its TGI = > 100 µM

The molecule "Cc1cc(C)nc(NS(=O)(=O)c2ccc(NC(=O)c3ccc4nc5ccccc5c(Nc5ccc(S(N)(=O)=O)cc5)c4c3)cc2)n1" , tested on SW-620 colon, showed TGI of > 100 µM
